Field: Trimeric HA Binding RLU. Provide a value for each of the binders that follow.
- ASSAY_SYSTEM: recombinant homotrimeric HA, A/South Carolina/1/18 H1N1 (Influenza A virus A/South Carolina/1/18 (H1N1))
- ASSAY_DETAILS: trimeric HA microarray, transfection set 3
- REPORTED_CONDITIONS: remark: other sources report otherwise
One number for each entry, in RLU.

# BINDER, METRIC, RESULT_UNIT, RESULT_NUMBER
data = [
    ("TCN-532 (5262_H18) (antibody, V domains shown) VH: QVQLQESGPGLVKPSETLSLTCTVSGGSVSSETYYWSWIRQPPGKGLEWIGYIYYIGNTDYRPSLKSRVTISLDTSKNQFSLKLSSVTAADTAVYYCARGAYYDSSGYPAFYIWGQGTMVTVSS VL: QSVLTQPPSVSGAPGQRVTISCTGSSSNIGSDYDVHWYKQLPGTAPKLLIFGNSNRPSGVPDRFSGSKSGTSASLAITGLQAEDEADYYCQSYDSSLSGFHVFGSGTKVTVL", "Trimeric HA Binding RLU", "RLU", 311),
]

Q. Need Trimeric HA Binding RLU of TCN-523 (5248_A17) (antibody, V domains shown) VH: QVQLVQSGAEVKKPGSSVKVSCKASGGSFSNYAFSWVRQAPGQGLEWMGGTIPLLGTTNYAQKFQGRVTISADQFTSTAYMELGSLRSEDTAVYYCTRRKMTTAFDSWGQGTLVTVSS VL: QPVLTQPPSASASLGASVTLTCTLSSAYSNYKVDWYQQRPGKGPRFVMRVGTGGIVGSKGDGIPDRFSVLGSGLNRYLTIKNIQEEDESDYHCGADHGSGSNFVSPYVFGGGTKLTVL , thanks.
A. 23700
